# System: HCT-15
# Assay Protocol: Growth inhibition of human HCT15 cells after 48 hrs by cell counting analysis
# Type: functional
# Study Conditions: at 10 µM
Hi there, I'd appreciate the recorded growth inhibition (GI) for every entry that follows.
Answers are plain numbers, in %.

* Cc1ccc(-c2csc(NC(=O)CCCl)n2)cc1 | 25.9
* O=C(CN1CCN(c2ccccc2)CC1)Nc1nc(-c2ccc(Br)cc2)cs1 | 26.1

# map each compound to its growth inhibition (GI)
1. CN1CCN(CCC(=O)Nc2nc(-c3ccc(Br)cc3)cs2)CC1
2. O=C(CCCl)Nc1nc(-c2ccc(Cl)cc2)cs1
3. CN1CCN(CCC(=O)Nc2nc(-c3ccc(Cl)cc3)cs2)CC1
4. Cc1ccc(-c2csc(NC(=O)CN3CCN(c4ccccc4)CC3)n2)cc1

Response line:
[42.6, 61.4, 18.1, 10.6]
